- Assayed System: proteinase K (Engyodontium album, UniProt P06873)
- Sequence (P06873 whole entry): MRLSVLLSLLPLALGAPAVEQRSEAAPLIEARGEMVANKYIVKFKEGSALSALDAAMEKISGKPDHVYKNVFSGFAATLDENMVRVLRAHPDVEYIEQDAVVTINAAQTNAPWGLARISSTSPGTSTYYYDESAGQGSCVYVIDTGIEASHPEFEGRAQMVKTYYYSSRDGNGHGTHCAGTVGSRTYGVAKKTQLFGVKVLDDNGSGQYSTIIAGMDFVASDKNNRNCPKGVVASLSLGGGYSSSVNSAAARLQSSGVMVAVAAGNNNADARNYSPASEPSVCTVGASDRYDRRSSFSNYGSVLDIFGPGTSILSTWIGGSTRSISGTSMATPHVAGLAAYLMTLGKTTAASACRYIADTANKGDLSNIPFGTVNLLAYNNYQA
- Assay Summary: Stability of compound in PBS at pH 7.4 assessed as Parengyodontium album proteinase K mediated degradation by measuring half life at 100 uM measured after 120 mins by RP UPLC analysis
- Format: ADME
Where a SMILES comes first, the peptide text is derived from it. Bridges are numbered along the chain shown (N, C = ends). Triazole bridges read from a SMILES are 1,4-linked. [ ]: non-standard residue; d: D form. Lys(N3) = [N-]=[N+]=NCCCC[C@H](N)C(=O)O; Pra = C#CC[C@H](N)C(=O)O
Reported half-life at 100 µM values for a set of compounds

For orientation, consider the following solved cases.
>>> value_observed("NCCCC[C@@H]1NC(=O)[C@H](Cc2ccc(O)cc2)NC(=O)[C@@H](NC(=O)[C@@H]2CCCN2C(=O)[C@H](CC(N)=O)NC(=O)[C@H](CCC(=O)O)NC(=O)[C@H](Cc2ccc(O)cc2)NC(=O)CNC(=O)[C@@H](N)CC(N)=O)CCSCc2ccc(cc2)CSCC[C@@H](C(=O)N[C@@H](CCC(=O)O)C(=O)O)NC(=O)[C@H](Cc2ccccc2)NC1=O")
"> 2 h"
>>> value_observed("C[C@@]1(C(=O)N[C@@H](CCC(=O)O)C(=O)O)CCC/C=C\\CCC[C@](C)(NC(=O)[C@@H]2CCCN2C(=O)[C@H](CC(N)=O)NC(=O)[C@H](CCC(=O)O)NC(=O)[C@@H](Cc2ccc(O)cc2)NC(=O)CNC(=O)[C@H](N)CC(N)=O)C(=O)N[C@@H](Cc2ccc(O)cc2)C(=O)N[C@@H](CCCCN)C(=O)N[C@@H](Cc2ccccc2)C(=O)N1")
"> 2 h"
>>> value_observed("NCCCC[C@@H]1NC(=O)[C@H](Cc2ccc(O)cc2)NC(=O)[C@@H](NC(=O)[C@@H]2CCCN2C(=O)[C@H](CC(N)=O)NC(=O)[C@H](CCC(=O)O)NC(=O)[C@H](Cc2ccc(O)cc2)NC(=O)CNC(=O)[C@@H](N)CC(N)=O)CCCCn2cc(nn2)C[C@@H](C(=O)N[C@@H](CCC(=O)O)C(=O)O)NC(=O)[C@H](Cc2ccccc2)NC1=O (H-NGYENP[Lys(N3)]YKF[Pra]E-OH; triazole 7-11)")
"0.467 h"

Data request, read-out half-life at 100 µM, for NCCCC[C@@H]1NC(=O)[C@H](Cc2ccc(O)cc2)NC(=O)[C@@H](NC(=O)[C@@H]2CCCN2C(=O)[C@H](CC(N)=O)NC(=O)[C@H](CCC(=O)O)NC(=O)[C@H](Cc2ccc(O)cc2)NC(=O)CNC(=O)[C@@H](N)CC(N)=O)CCCCNC(=O)C[C@@H](C(=O)N[C@@H](CCC(=O)O)C(=O)O)NC(=O)[C@H](Cc2ccccc2)NC1=O (H-NGYENPKYKFDE-OH; lactam 7-11)
> 2 h

###

- Assay Summary: Binding affinity to N-terminal hexahistidine-tagged recombinant human Mint2-PARM (364 to 570 residues) in presence of probe [(TAMRA)-NNG-QNGYENPTYKFFEQMQN] by fluorescense polarization assay
*1 amine or outer side, *2 acyl side, *3 side chain or, on linkers, in order; H or OH if unused. Where a SMILES comes first, the peptide text is derived from it. Bridges are numbered along the chain shown (N, C = ends). Triazole bridges read from a SMILES are 1,4-linked. [ ]: non-standard residue; d: D form. Perfluorobiphenyl(4,4') = Fc1c(F)c([*:1])c(F)c(F)c1-c1c(F)c(F)c([*:2])c(F)c1F; Lys(N3) = [N-]=[N+]=NCCCC[C@H](N)C(=O)O; pXylylene = c1cc(C[*:2])ccc1C[*:1]; S8 = C=CCCCCCC[C@](C)(N)C(=O)O; S5 = C=CCCC[C@](C)(N)C(=O)O; Pra = C#CC[C@H](N)C(=O)O
Metric: pKi
pKi field: float, defined as -log10 of concentration (mol/L).

As a guide, the following entries are already answered.
>>> value_observed("NCCCC[C@H](NC(=O)[C@H](Cc1ccc(O)cc1)NC(=O)[C@H](CS)NC(=O)[C@@H]1CCCN1C(=O)[C@H](CC(N)=O)NC(=O)[C@H](CCC(=O)O)NC(=O)[C@H](Cc1ccc(O)cc1)NC(=O)CNC(=O)[C@@H](N)CC(N)=O)C(=O)N[C@@H](Cc1ccccc1)C(=O)N[C@@H](CS)C(=O)N[C@@H](CCC(=O)O)C(=O)O (H-NGYENPCYKFCE-OH)")
4.67
>>> value_observed("C[C@@]1(C(=O)N[C@@H](CCC(=O)O)C(=O)O)CCC/C=C\\CCCCCC[C@](C)(NC(=O)[C@@H]2CCCN2C(=O)[C@H](CC(N)=O)NC(=O)[C@H](CCC(=O)O)NC(=O)[C@H](Cc2ccc(O)cc2)NC(=O)CNC(=O)[C@@H](N)CC(N)=O)C(=O)N[C@@H](Cc2ccc(O)cc2)C(=O)N[C@@H](CCCCN)C(=O)N[C@@H](Cc2ccccc2)C(=O)N1 (H-NGYENP[S8]YKF[S5]E-OH; staple (Z) 7-11)")
5.64
>>> value_observed("NCCCC[C@@H]1NC(=O)[C@H](Cc2ccc(O)cc2)NC(=O)[C@@H](NC(=O)[C@@H]2CCCN2C(=O)[C@H](CC(N)=O)NC(=O)[C@H](CCC(=O)O)NC(=O)[C@H](Cc2ccc(O)cc2)NC(=O)CNC(=O)[C@@H](N)CC(N)=O)CSc2c(F)c(F)c(c(F)c2F)-c2c(F)c(F)c(c(F)c2F)SC[C@@H](C(=O)N[C@@H](CCC(=O)O)C(=O)O)NC(=O)[C@H](Cc2ccccc2)NC1=O (H-NGYENPCYKFCE-OH; linker 7-11 via Perfluorobiphenyl(4,4'))")
6.05

Given the entry NCCCC[C@@H]1NC(=O)[C@H](Cc2ccc(O)cc2)NC(=O)[C@@H](NC(=O)[C@@H]2CCCN2C(=O)[C@H](CC(N)=O)NC(=O)[C@H](CCC(=O)O)NC(=O)[C@H](Cc2ccc(O)cc2)NC(=O)CNC(=O)[C@@H](N)CC(N)=O)CCCCn2cc(nn2)C[C@@H](C(=O)N[C@@H](CCC(=O)O)C(=O)O)NC(=O)[C@H](Cc2ccccc2)NC1=O (H-NGYENP[Lys(N3)]YKF[Pra]E-OH; triazole 7-11) , report its measured pKi.
5.92

// pKi lookup, key: NCCCC[C@@H]1NC(=O)[C@H](Cc2ccc(O)cc2)NC(=O)[C@@H](NC(=O)[C@@H]2CCCN2C(=O)[C@H](CC(N)=O)NC(=O)[C@H](CCC(=O)O)NC(=O)[C@H](Cc2ccc(O)cc2)NC(=O)CNC(=O)[C@@H](N)CC(N)=O)CSCc2ccc(cc2)CSC[C@@H](C(=O)N[C@@H](CCC(=O)O)C(=O)O)NC(=O)[C@H](Cc2ccccc2)NC1=O (H-NGYENPCYKFCE-OH; linker 7-11 via pXylylene)
6.40
